Origin of the recorded values: patent US12297179B2

measurement protocol: Kinetic solubility in bio-relevant media (SGF/FaSSGF, FaSSIF, FeSSIF) and H2O at 37° C., with pH of supernatant
Format: physicochemical
assay setup: water, 37 °C, thermodynamic from solid, Table 12, H2O, 30 min
Structures can show the parent of a compound that is named as a salt.
observed property: solubility at 30 min (µg/mL)
Give just the numeric value; µg/mL need not be written.

Entry Cc1ccccc1-c1ccc(-c2cc(C(=O)O)c3c(c2)nnn3C)cc1 [Tris salt Form C] ; solubility at 30 min = 820

* * *

measurement protocol: Kinetic solubility in bio-relevant media (SGF/FaSSGF, FaSSIF, FeSSIF) and H2O at 37° C., with pH of supernatant
Assay type: physicochemical
assay setup: FeSSIF, 37 °C, pH 5, fessif, thermodynamic from solid, Table 12, FeSSIF, 24 h
Method: Weigh 100 mg of sodium chloride into a 50-mL volumetric flask. Add appropriate volume of purified water and sonicate until all solids are completely dissolved. Add sufficient purified water closely to the target volume and adjust to pH 1.6. Weigh 3 mg of FaSSIF/FeSSIF/FaSSGF powder into the volumetric flask and sonicate until the powder is completely dissolved. […] Kinetic solubility of Tris salt Form A and free acid Form D were measured in three bio-relevant media (SGF, FaSSIF and FeSSIF) at 37° C. […]
Structures can show the parent of a compound that is named as a salt.
observed property: solubility at 24 h (µg/mL)
Give just the numeric value; µg/mL need not be written.

Entry Cc1ccccc1-c1ccc(-c2cc(C(=O)O)c3c(c2)nnn3C)cc1 [Tris salt Form C] ; solubility at 24 h = 40

* * *

measurement protocol: Kinetic solubility in bio-relevant media (SGF/FaSSGF, FaSSIF, FeSSIF) and H2O at 37° C., with pH of supernatant
Assay type: physicochemical
assay setup: water, 37 °C, thermodynamic from solid, Table 12, H2O, 2 h
Counter-ions that a name gives are not always drawn.
observed property: solubility at 2 h (µg/mL)
Give just the numeric value; µg/mL need not be written.

Entry Cc1ccccc1-c1ccc(-c2cc(C(=O)O)c3c(c2)nnn3C)cc1 [Tris salt Form C] ; solubility at 2 h = 750
